- assay.name: qHTS assay to identify small molecule agonists of the AP-1 signaling pathway - cell viability counter screen (AID 1159525); further: nearly all actives have a fitted effect of over 55% in size
- run.parameters: ME-180 (cervical carcinoma) AP-1-bla cells viability, ATP luminescence, 5 h; series mostly up to 76.8 µM
Records with an inconclusive call do not appear. The source made the active and inactive calls. The call rests on the fitted dose curve.
Entry note: the call must match one of class 1 for active, class 0 for inactive

Solved entries:
Called result for O=C1Cc2cc(Cl)ccc2N1
class 0

Would you mind doing CCC1NC(=O)c2cc(S(N)(=O)=O)c(Cl)cc2N1 (centres undefined) as well?
class 0

Would you mind doing CCC=CC#N as well?
class 0

Would you mind doing CN1CCCN=C1COC(=O)C(O)(c1ccccc1)C1CCCCC1 (centres undefined) as well?
class 0

Would you mind doing CCCC(C(=O)OCCN(CC)CC)(c1ccccc1)c1ccccc1 as well?
class 0

---
Called result for c1ccc(C[n+]2cccc3ccccc32)cc1
class 0

Would you mind doing CC(C)=CCC1C(=O)N(c2ccccc2)N(c2ccccc2)C1=O as well?
class 0

Would you mind doing CN1C(=O)OC(C)(C)C1=O as well?
class 0

Would you mind doing COc1ccccc1N1CCN(CC(O)COc2cccc3ccccc23)CC1 (centres undefined) as well?
class 1

Would you mind doing O=C(/C=C/c1ccccc1)OCCc1ccccc1 as well?
class 0

Would you mind doing c1ccc2c(c1)CCc1ccccc1N2 as well?
class 0

Would you mind doing CC=C(Cl)Cl as well?
class 0

Would you mind doing CCCCCCCCCCCCCCN(CCO)CCO as well?
class 1

Would you mind doing CCOC(=O)C1=C(C)NC(C)=C(C(=O)OC)C1c1cccc(Cl)c1Cl (centres undefined) as well?
class 0

---

- assay.name: qHTS assay to identify small molecule antagonists of the androgen receptor (AR) signaling pathway using the MDA cell line - cell viability counter screen (AID 743041; further: nearly all actives have a fitted effect of over 45% in size)
- run.parameters: MDA-kb2 viability, CellTiter-Fluor, 16 h, cells co-treated with R1881 androgen agonist; series mostly up to 70.3 µM
Inconclusive results are not listed. Calls of active or inactive are those of the source. Calls come from the whole dose curve; as a rule, active = well fitted cell-killing curve with a large enough effect in the repeat runs; inconclusive = weak or mixed curves, or effect the other way; inactive = flat fitted curve, though single readings scatter.
Entry note: the call must match one of 1.0 = active, 0.0 = inactive

Called result for CC(=O)Oc1ccc([N+](=O)[O-])cc1CCl
1.0

Would you mind doing CC(=O)N/N=C/c1ccc([N+](=O)[O-])o1 as well?
0.0

Would you mind doing C=C1C[C@@]23CC[C@H]4[C@@](C)(CCC[C@@]4(C)C(=O)O[C@@H]4O[C@H](CO)[C@@H](O)[C@H](O)[C@H]4O)[C@@H]2CC[C@]1(O[C@@H]1O[C@H](CO)[C@@H](O)[C@H](O[C@@H]2O[C@H](CO)[C@@H](O)[C@H](O)[C@H]2O)[C@H]1O[C@@H]1O[C@H](CO)[C@@H](O)[C@H](O)[C@H]1O)C3 as well?
0.0

Would you mind doing O=[N+]([O-])c1ccc(O/N=C/c2cc(Br)c(O)c(Br)c2)c([N+](=O)[O-])c1 as well?
0.0

Would you mind doing O=c1cc(-c2ccccc2)oc2ccc3ccccc3c12 as well?
0.0

Would you mind doing FC(F)(F)c1ccccc1Cl as well?
0.0

Would you mind doing CCCCCC#CC(=O)OC as well?
0.0

Would you mind doing CCCC(=O)C(=O)O as well?
0.0

Would you mind doing C[C@H]1c2cccc(O)c2C(O)=C2C(=O)[C@]3(O)C(O)=C(C(N)=O)C(=O)[C@@H](N(C)C)[C@@H]3[C@@H](O)[C@@H]21 as well?
0.0

Would you mind doing CCOC(=O)c1ccc(I)cc1 as well?
0.0

---

- assay.name: qHTS assay to test for compound auto fluorescence at 460 nm (blue) in HepG2 cell free culture (AID 720685); further: on the % scale 0 is the no-effect control and ±100 the full control effect
- run.parameters: Cell-free culture medium, blue autofluorescence 405/460 nm; series mostly up to 91.3 µM
The source made the active and inactive calls. The call rests on the fitted dose curve; in most records, active means well fitted curve in the direction sought with a large enough effect in the repeat runs; inconclusive means weak or mixed curves; inactive means flat fitted curve, though single readings scatter.
metric.name: fluorescence, % of fluorescent control

Solved entries:
Would you mind telling me what fluorescence, % of fluorescent control value was observed for CCC1CO1 (stereo not given) ?
inactive

Would you mind doing CC1CC(C)C(=O)C1=O (stereo not given) as well?
inactive

Would you mind doing CC1(C)O[C@@H]2C[C@H]3[C@@H]4C[C@H](F)C5=CC(=O)C=C[C@]5(C)[C@H]4[C@@H](O)C[C@]3(C)[C@]2(C(=O)CO)O1 as well?
-0.0967% [at 18.6 µM] (inactive)

Would you mind doing C[C@@H](CN(C)C)CN1c2ccccc2Sc2ccccc21 as well?
0.0401% [at 18.6 µM] (inactive)

Would you mind doing CC(=O)OCC(=O)NCCCOc1cccc(CN2CCCCC2)c1 as well?
inactive

Would you mind doing CCn1cc(C(=O)O)c(=O)c2cc(F)c(N3CCNCC3)cc21 as well?
inactive

Would you mind doing Oc1ccc(Cl)c2cccnc12 as well?
inactive

Would you mind doing CCC1NC(=O)c2cc(S(N)(=O)=O)c(Cl)cc2N1 (stereo not given) as well?
-0.0342% [at 18.6 µM] (inactive)

---
Would you mind telling me what fluorescence, % of fluorescent control value was observed for OC(CCN1CCCC1)(c1ccccc1)C1CCCCC1 (stereo not given) ?
0.0206% [at 18.6 µM] (inactive)

Would you mind doing CC(=O)OCC[N+](C)(C)C as well?
inactive

Would you mind doing O=c1[nH]ncc2ccccc12 as well?
inactive

---

- assay.system: Luciferin 4-monooxygenase (Photinus pyralis)
- assay.name: qHTS assay to identify small molecule inhibitors of firefly luciferase (AID 1224835); further: nearly all actives have a fitted effect of over 25% in size
- run.parameters: purified P. pyralis luciferase, luminescence inhibition; series mostly up to 52.9 µM
Inconclusive results are not listed. The source made the active and inactive calls. Calls come from the whole dose curve; as a rule, active = well fitted inhibition curve with a large enough effect in the repeat runs; inconclusive = weak or mixed curves; inactive = flat fitted curve, though single readings scatter.
Entry note: the call must match one of active, inactive

Called result for CN1CCCN=C1COC(=O)C(O)(c1ccccc1)C1CCCCC1 (centres undefined)
inactive

Would you mind doing O=C(O)c1cccc(-c2noc(-c3ccccc3F)n2)c1 as well?
active

Would you mind doing CCOC(=O)/C=C/C(=O)OCC as well?
inactive

Would you mind doing CC(=O)OCC(=O)NCCCOc1cccc(CN2CCCCC2)c1 as well?
inactive

Would you mind doing C=C1C[C@@]23CC[C@H]4[C@@](C)(CCC[C@@]4(C)C(=O)O[C@@H]4O[C@H](CO)[C@@H](O)[C@H](O)[C@H]4O)[C@@H]2CC[C@]1(O[C@@H]1O[C@H](CO)[C@@H](O)[C@H](O[C@@H]2O[C@H](CO)[C@@H](O)[C@H](O)[C@H]2O)[C@H]1O[C@@H]1O[C@H](CO)[C@@H](O)[C@H](O)[C@H]1O)C3 as well?
inactive

---
Called result for CC(C)(C)C(=O)C(=O)O
inactive

Would you mind doing C=CC(C)(CCC=C(C)C)OC(=O)CC(C)C (centres undefined) as well?
inactive

Would you mind doing COc1cc(Nc2c(C#N)cnc3cc(OCCCN4CCN(C)CC4)c(OC)cc23)c(Cl)cc1Cl as well?
inactive

Would you mind doing C[C@H]1C[C@H](O)c2ccsc2S1(=O)=O as well?
inactive

Would you mind doing CCCCCCCC/C=C\CCCCCCCCCCCC(=O)O as well?
inactive

Would you mind doing c1csc(SSc2cccs2)c1 as well?
active

---

- assay.name: qHTS assay to test for compound auto fluorescence at 590 nm (red) in HepG2 cell free culture (AID 720684); further: on the % scale 0 is the no-effect control and ±100 the full control effect
- run.parameters: cell-free medium autofluorescence, red 540/590 nm; series mostly up to 91.3 µM
Active and inactive are the calls of the source. Calls follow the shape of the dose curve; as a rule, active = well fitted curve in the direction sought with a large enough effect in the repeat runs; inconclusive = weak or mixed curves; inactive = flat fitted curve, though single readings scatter.
metric.name: fluorescence, % of Rose Bengal

Solved entries:
Would you mind telling me what fluorescence, % of Rose Bengal value was observed for CCc1ccccc1 ?
inactive

Would you mind doing O=C=Nc1ccc(Cl)c(Cl)c1 as well?
inactive

Would you mind doing CN1CCCC(n2nc(Cc3ccc(Cl)cc3)c3ccccc3c2=O)CC1 (stereo not drawn) as well?
inactive

Would you mind doing C[C@]12CC[C@@H]3c4ccc(O)cc4CC[C@H]3[C@@H]1CC[C@@H]2OC(=O)CCC1CCCC1 as well?
inactive

Would you mind doing Cc1ccc(OC(=O)c2ccccc2O)cc1 as well?
inactive

Would you mind doing CC1=C(Br)C(=O)C(Br)=C/C1=C(/c1ccccc1S(=O)(=O)O)c1cc(Br)c(O)c(Br)c1C as well?
inactive

---
Would you mind telling me what fluorescence, % of Rose Bengal value was observed for Clc1ccc(Nc2nnc(Cc3ccncc3)c3ccccc23)cc1 ?
inactive

Would you mind doing CCCCCCCC/C=C\CCCCCCCCCCCC(=O)O as well?
inactive

Would you mind doing Cc1ccccc1N=C(N)Nc1ccccc1C as well?
inactive

Would you mind doing C=C1C[C@@]23CC[C@H]4[C@@](C)(CCC[C@@]4(C)C(=O)O[C@@H]4O[C@H](CO)[C@@H](O)[C@H](O)[C@H]4O)[C@@H]2CC[C@]1(O[C@@H]1O[C@H](CO)[C@@H](O)[C@H](O[C@@H]2O[C@H](CO)[C@@H](O)[C@H](O)[C@H]2O)[C@H]1O[C@@H]1O[C@H](CO)[C@@H](O)[C@H](O)[C@H]1O)C3 as well?
inactive

Would you mind doing CC(C)=CCC1C(=O)N(c2ccccc2)N(c2ccccc2)C1=O as well?
inactive

Would you mind doing O=C1c2ccccc2C(=O)C1(O)O as well?
inactive

Would you mind doing COc1ccccc1Oc1c(NS(=O)(=O)c2ccc(C(C)(C)C)cc2)nc(-c2ncccn2)nc1OCCO as well?
inactive

Would you mind doing C=Cc1ccc(S(=O)(=O)O)cc1 as well?
inactive

Would you mind doing NCCNCCO as well?
inactive

Would you mind doing C=CC(=O)[O-].C=CC(=O)[O-].[Zn+2] as well?
inactive

Would you mind doing CCCCC(CC)COP(=O)(O)O (stereo not drawn) as well?
inactive

Would you mind doing O=C1C(=O)c2ccccc2C(O)=C1C1CCC(c2ccc(Cl)cc2)CC1 (stereo not drawn) as well?
0.0009% [at 18.6 µM] (inactive)

Would you mind doing CCCCCCNC(=O)n1cc(F)c(=O)[nH]c1=O as well?
inactive

Would you mind doing C=CC(=O)OCC1CC2CC1C1CCC(COC(=O)C=C)C21 (stereo not drawn) as well?
inactive

Would you mind doing CN1C(=O)OC(C)(C)C1=O as well?
inactive

Would you mind doing CCC(C)COC(=O)CC(C)C (stereo not drawn) as well?
inactive

Would you mind doing O=c1[nH]c2ccc(Cl)cc2o1 as well?
inactive
